# target of assay: rGmolPBP1 (Grapholita molesta)
# Sequence (A0A2R4SBD6 entry or part of it): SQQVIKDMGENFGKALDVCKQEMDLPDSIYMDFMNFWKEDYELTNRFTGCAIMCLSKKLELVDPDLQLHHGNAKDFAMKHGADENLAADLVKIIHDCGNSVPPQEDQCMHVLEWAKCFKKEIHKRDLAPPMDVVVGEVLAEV
measured endpoint: IC50 (µM)
One number for each entry, in µM.

Entry CCCCC/C=C\CCCCCCCOC(C)=O [Z8-14:Ac, (Z)-8-tetradecenyl acetate] — recorded IC50 = 2.93

---

# target of assay: GmolPBP2 mutant I113A (Grapholita molesta, UniProt A0A059VC28, I138A)
# Sequence (A0A059VC28 entry or part of it I138A): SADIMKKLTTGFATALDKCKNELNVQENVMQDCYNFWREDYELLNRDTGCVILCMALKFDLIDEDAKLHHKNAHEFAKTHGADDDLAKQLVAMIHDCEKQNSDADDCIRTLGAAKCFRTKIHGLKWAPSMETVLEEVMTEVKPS
# procedure summary: Fluorescence competitive binding assay, GmolPBP2 mutant
measured endpoint: Ki (µM)
Answers are plain numbers, in µM.

Entry CCCCC/C=C\CCCCCCCOC(C)=O [Z8-14:Ac, (Z)-8-tetradecenyl acetate] — recorded Ki = 0.52

---

# target of assay: rGmolPBP1 (Grapholita molesta)
measured endpoint: Kd (nM)
Answers are plain numbers, in nM.

Entry c1ccc(Nc2cccc3ccccc23)cc1 [1−NPN, N-Phenyl-1-naphthylamine, reference compound] — recorded Kd = 1290

---

# target of assay: rGmolPBP3 (Grapholita molesta)
measured endpoint: Kd
State the value with its unit after it.

Entry c1ccc(Nc2cccc3ccccc23)cc1 [1−NPN, N-Phenyl-1-naphthylamine, reference compound] — recorded Kd = 11.2 µM

---

# target of assay: rGmolPBP3 (Grapholita molesta, UniProt A0A059VBP3)
# Sequence (A0A059VBP3 entry or part of it): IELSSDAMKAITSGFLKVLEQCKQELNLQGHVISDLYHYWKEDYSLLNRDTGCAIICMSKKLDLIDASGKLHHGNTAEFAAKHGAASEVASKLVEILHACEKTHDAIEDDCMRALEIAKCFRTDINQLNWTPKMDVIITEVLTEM
measured endpoint: IC50 (nM)
Numbers only, in nM.

Entry CCCCC/C=C\CCCCCCCOC(C)=O [Z8-14:Ac, (Z)-8-tetradecenyl acetate] — recorded IC50 = 2780

---

# target of assay: GmolPBP2 mutant I94A (Grapholita molesta, UniProt A0A059VC28, I119A)
# Sequence (A0A059VC28 entry or part of it I119A): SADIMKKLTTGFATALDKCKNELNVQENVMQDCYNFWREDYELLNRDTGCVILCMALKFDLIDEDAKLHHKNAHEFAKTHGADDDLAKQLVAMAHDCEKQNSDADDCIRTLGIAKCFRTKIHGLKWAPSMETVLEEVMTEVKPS
# procedure summary: Fluorescence competitive binding assay, GmolPBP2 mutant
# Procedure: The binding affinities of three rGmolPBPs and two rGmolGOBPs for Z8-14:Ac were determined using an F-2700 fluorescence spectrophotometer (Hitachi, Tokyo, Japan). First, we measured the dissociation constants (Kd) of the rGmolPBPs (or rGmolGOBPs) binding to 1−NPN. […] As the doses of 1−NPN were increased, the increasing amplitude of the fluorescence intensity decreased, and finally, the binding of the protein to 1−NPN reached saturation. […]
measured endpoint: IC50 (nM)
Numbers only, in nM.

Entry CCCCC/C=C\CCCCCCCOC(C)=O [Z8-14:Ac, (Z)-8-tetradecenyl acetate] — recorded IC50 = 1080

---

# target of assay: GmolPBP2 mutant F12A (Grapholita molesta, UniProt A0A059VC28, F37A)
# Sequence (A0A059VC28 entry or part of it F37A): as the sequence (A0A059VC28 entry or part of it I138A) above, with F12A, A113I counted along it
# procedure summary: Fluorescence competitive binding assay, GmolPBP2 mutant
measured endpoint: IC50

Test item CCCCC/C=C\CCCCCCCOC(C)=O [Z8-14:Ac, (Z)-8-tetradecenyl acetate] ; GmolPBP2 mutant F12A (Grapholita molesta, UniProt A0A059VC28, F37A); reported IC50 was > 14 µM

---

# target of assay: GmolPBP2 mutant I113A (Grapholita molesta, UniProt A0A059VC28, I138A)
# procedure summary: Fluorescence competitive binding assay, GmolPBP2 mutant
measured endpoint: IC50 (nM)
Numbers only, in nM.

Test item CCCCC/C=C\CCCCCCCOC(C)=O [Z8-14:Ac, (Z)-8-tetradecenyl acetate] ; GmolPBP2 mutant I113A (Grapholita molesta, UniProt A0A059VC28, I138A); reported IC50 was 980

---

# target of assay: rGmolPBP2 (wild-type) (Grapholita molesta, UniProt A0A059VC28)
# Sequence (A0A059VC28 entry or part of it): as the sequence (A0A059VC28 entry or part of it I138A) above, with A113I counted along it
measured endpoint: pKi
Numbers only, as −log10 of the molar value.

Test item CCCCC/C=C\CCCCCCCOC(C)=O [Z8-14:Ac, (Z)-8-tetradecenyl acetate] ; rGmolPBP2 (wild-type) (Grapholita molesta, UniProt A0A059VC28); reported pKi was 6.18
